# methodNotes: Oxidative metabolic stability in human liver microsomes assessed as compound remaining at 2 uM after 30 mins in presence of 1 mM UDPGA
# Type: ADME, Microsome
# condition: liver microsomes, read-out: Stability
measuredEndpoint: remaining at 0.5 h, 2 µM (%)
State just the number; it will be interpreted in %.

Exercise: May I ask what remaining at 0.5 h, 2 µM has been recorded for O=S(=O)(c1ccc(C(F)(F)F)nc1)N1[C@@H](C2CC2)c2cn[nH]c2C(F)(F)[C@H]1C1CC1 (stereo in doubt) ?
Key: 75

Exercise: Item CC1C(=O)c2[nH]ncc2C(C)N1S(=O)(=O)c1ccc(C(F)(F)F)cc1 (stereo not drawn) has what recorded remaining at 0.5 h, 2 µM?
Key: 77

Exercise: // query remaining at 0.5 h, 2 µM value for entry CC(C)(C)C1C(=O)c2[nH]ncc2C(C2CC2)N1S(=O)(=O)c1ccc(C(F)(F)F)nc1 (stereo in doubt; 3t)
Key: 66

----------
# methodNotes: Inhibition of gamma-secretase-mediated notch cleavage after 2 hrs by ELISA
pIC50: −log10 of the molar value.
pIC50 vs 8: at or above is label 1, below is label 0.

Exercise: Given C[C@@H]1c2cn[nH]c2C(=O)[C@H](C)N1S(=O)(=O)c1ccc(C(F)(F)F)nc1 (stereo in doubt) , state whether its pIC50 is at least 8.
Key: label 0

Exercise: Check this compound for pIC50 at or above 8: O=C1CN(S(=O)(=O)c2ccc(C(F)(F)F)nc2)C(C2CC2)c2cn[nH]c21 (racemic)
Key: label 0

Exercise: Decide: pIC50 of CC1C(=O)c2[nH]ncc2C(C)N1S(=O)(=O)c1ccc(C(F)(F)F)cc1 (stereo not drawn) >= 8?
Key: label 0

Exercise: Quick check: does `CC(C)[C@@H]1c2cn[nH]c2C(=O)CN1S(=O)(=O)c1ccc(Cl)cc1` have pIC50 greater than or equal to 8?
Key: label 0

Exercise: Evaluate CC[C@@H]1c2cn[nH]c2C(=O)[C@H](CC)N1S(=O)(=O)c1ccc(Cl)cc1 (stereo in doubt) : pIC50 at minimum 8?
Key: label 1

Exercise: Hello, I need to know if O=S(=O)(c1ccc(C(F)(F)F)nc1)N1C(C2CC2)c2cn[nH]c2C(F)(F)C12CC2 (stereo in doubt; 17c) has measured pIC50 not below 8. Thanks!
Key: label 0

----------
Would you kindly list IC50 for each of these molecules?
# systemTested: Gamma-secretase
# methodNotes: Inhibition of gamma-secretase-mediated notch cleavage in human SNC cells by ELISA
Give just the numeric value; µM need not be written.

Exercise: GET /values?readout=IC50&item= O=S(=O)(c1ccc(C(F)(F)F)nc1)N1[C@@H](C2CC2)c2cn[nH]c2C(F)(F)[C@H]1C1CC1 (stereo in doubt)
Key: 0.138

Exercise: Suppose we examine the molecule O=S(=O)(c1ccc(C(F)(F)F)nc1)N1[C@H](C2CC2)c2cn[nH]c2C(F)(F)[C@H]1C1CC1 (stereo in doubt) ; what IC50 value has been reported?
Key: 0.013

Exercise: Form field: reported IC50 of CC[C@@H]1c2cn[nH]c2C(=O)[C@H](CC)N1S(=O)(=O)c1ccc(Cl)cc1 (stereo in doubt)
Key: 0.288

Exercise: IC50 for CC[C@@H]1C(=O)c2[nH]ncc2[C@H](CC)N1S(=O)(=O)c1ccc(Cl)cc1 (stereo in doubt) ?
Key: 0.546

Exercise: Look up IC50 for this molecule: O=S(=O)(c1ccc(C(F)(F)F)cc1)N1CC(F)(F)c2[nH]ncc2C1C(F)(F)F (racemic)
Key: 0.403

Exercise: Look up IC50 for this molecule: O=C1c2[nH]ncc2C(C2CC2)N(S(=O)(=O)c2ccc(C(F)(F)F)nc2)C12CC2 (racemic)
Key: 0.688

Exercise: // returns reported IC50 for input O=C1c2[nH]ncc2C(C2CC2)N(S(=O)(=O)c2ccc(C(F)(F)F)cc2)C12CC2 (racemic)
Key: 0.995

Exercise: Could you tell me which IC50 is on file for O=C1c2[nH]ncc2[C@@H](C2CC2)N(S(=O)(=O)c2ccc(C(F)(F)F)nc2)[C@@H]1C1CC1 (relative stereo) ?
Key: 25.1

Exercise: Recorded IC50 for CC(C)(C)C1C(=O)c2[nH]ncc2C(C2CC2)N1S(=O)(=O)c1ccc(C(F)(F)F)nc1 (stereo in doubt; 3t) , please?
Key: 0.071

Exercise: Fill in: IC50 of CC(C)C1c2cn[nH]c2C(F)(F)CN1S(=O)(=O)c1ccc(Cl)cc1 (racemic) is ___
Key: 0.574

Exercise: # lookup: IC50 of O=S(=O)(c1ccc(C(F)(F)F)nc1)N1[C@@H](C2CC2)c2cn[nH]c2C(F)(F)[C@@H]1C1CC1 (stereo in doubt)
Key: 0.034

Exercise: Tell me the measured IC50 of CC[C@@H]1c2cn[nH]c2C(F)(F)[C@H](CC)N1S(=O)(=O)c1ccc(C(F)(F)F)nc1 (relative stereo) , please.
Key: 0.304

Exercise: Returns the measured IC50 for the input molecule. Input: O=S(=O)(c1ccc(C(F)(F)F)nc1)N1[C@@H](C2CC2)C(F)(F)c2[nH]ncc2[C@H]1C1CC1 (stereo in doubt)
Key: 0.304

Exercise: Please report the recorded IC50 for CC(C)[C@H]1C(=O)c2[nH]ncc2[C@@H](C(C)C)N1S(=O)(=O)c1ccc(C(F)(F)F)cc1 (relative stereo) .
Key: 2.3

Exercise: Which IC50 is reported for this molecule? C[C@@H]1N(S(=O)(=O)c2ccc(C(F)(F)F)cc2)[C@H](C2CC2)c2cn[nH]c2C1(F)F (relative stereo)
Key: 0.418

Exercise: Requested field: IC50. Item: CC[C@@H]1c2cn[nH]c2C(=O)[C@H](CC)N1S(=O)(=O)c1ccc(C(F)(F)F)nc1 (relative stereo)
Key: 2.36

Exercise: Which IC50 value is on record for O=S(=O)(c1ccc(C(F)(F)F)nc1)N1C(C2CC2)c2cn[nH]c2C(F)(F)C12CC2 (racemic) ?
Key: 0.05

Exercise: Query (molecule): C[C@@H]1c2cn[nH]c2C(=O)[C@H](C)N1S(=O)(=O)c1ccc(C(F)(F)F)nc1 (stereo in doubt) ; field requested: IC50
Key: 18.3

Exercise: Reported IC50, molecule O=S(=O)(c1ccc(C(F)(F)F)nc1)N1C(C2CC2)c2cn[nH]c2C(F)(F)C12CC2 (stereo in doubt; 17c) : ____
Key: 9.28

Exercise: If you can, please state the reported IC50 value of O=S(=O)(c1ccc(C(F)(F)F)nc1)N1C(C2CC2)c2cn[nH]c2C(F)(F)C12CC2 (stereo in doubt; 17b) .
Key: 0.025

Exercise: Find the recorded IC50 belonging to O=C1c2[nH]ncc2[C@@H](C2CC2)N(S(=O)(=O)c2ccc(C(F)(F)F)nc2)[C@H]1C1CC1 (relative stereo) and report it.
Key: 6.7

Exercise: Dear colleague, I am looking for the recorded IC50 of the following molecule: O=S(=O)(c1ccc(C(F)(F)F)cc1)N1C(C2CC2)c2cn[nH]c2C(F)(F)C1C1CC1 (stereo not given)
Key: 0.771

Exercise: Looking for the measured IC50 of O=C1c2[nH]ncc2C(C2CC2)N(S(=O)(=O)c2ccc(C(F)(F)F)cn2)C12CC2 (stereo in doubt; 16i) , can you help?
Key: 2.29

Exercise: Fill blank: measured IC50 of the molecule O=C1c2[nH]ncc2C(C2CC2)N(S(=O)(=O)c2ccc(C(F)(F)F)nc2)C12CC2 (stereo in doubt; 16f) is ____.
Key: 0.25

Exercise: Fill in: IC50 of O=C1c2[nH]ncc2C(C2CC2)N(S(=O)(=O)c2ccc(C(F)(F)F)nc2)C1C1CCOCC1 (racemic) is ___
Key: 0.187

These data points were gathered from ChEMBL document CHEMBL1158636.
